Data provenance is patent US20200339702A1.

Target: T1, rhesus ERBB3 on transiently transfected HEK-293 cells (rhesus monkey (Macaca mulatta), UniProt P21860 20-1342 (human entry))
T1 construct: also called rhesus ERBB3+ HEK-293 cells
T1 chain: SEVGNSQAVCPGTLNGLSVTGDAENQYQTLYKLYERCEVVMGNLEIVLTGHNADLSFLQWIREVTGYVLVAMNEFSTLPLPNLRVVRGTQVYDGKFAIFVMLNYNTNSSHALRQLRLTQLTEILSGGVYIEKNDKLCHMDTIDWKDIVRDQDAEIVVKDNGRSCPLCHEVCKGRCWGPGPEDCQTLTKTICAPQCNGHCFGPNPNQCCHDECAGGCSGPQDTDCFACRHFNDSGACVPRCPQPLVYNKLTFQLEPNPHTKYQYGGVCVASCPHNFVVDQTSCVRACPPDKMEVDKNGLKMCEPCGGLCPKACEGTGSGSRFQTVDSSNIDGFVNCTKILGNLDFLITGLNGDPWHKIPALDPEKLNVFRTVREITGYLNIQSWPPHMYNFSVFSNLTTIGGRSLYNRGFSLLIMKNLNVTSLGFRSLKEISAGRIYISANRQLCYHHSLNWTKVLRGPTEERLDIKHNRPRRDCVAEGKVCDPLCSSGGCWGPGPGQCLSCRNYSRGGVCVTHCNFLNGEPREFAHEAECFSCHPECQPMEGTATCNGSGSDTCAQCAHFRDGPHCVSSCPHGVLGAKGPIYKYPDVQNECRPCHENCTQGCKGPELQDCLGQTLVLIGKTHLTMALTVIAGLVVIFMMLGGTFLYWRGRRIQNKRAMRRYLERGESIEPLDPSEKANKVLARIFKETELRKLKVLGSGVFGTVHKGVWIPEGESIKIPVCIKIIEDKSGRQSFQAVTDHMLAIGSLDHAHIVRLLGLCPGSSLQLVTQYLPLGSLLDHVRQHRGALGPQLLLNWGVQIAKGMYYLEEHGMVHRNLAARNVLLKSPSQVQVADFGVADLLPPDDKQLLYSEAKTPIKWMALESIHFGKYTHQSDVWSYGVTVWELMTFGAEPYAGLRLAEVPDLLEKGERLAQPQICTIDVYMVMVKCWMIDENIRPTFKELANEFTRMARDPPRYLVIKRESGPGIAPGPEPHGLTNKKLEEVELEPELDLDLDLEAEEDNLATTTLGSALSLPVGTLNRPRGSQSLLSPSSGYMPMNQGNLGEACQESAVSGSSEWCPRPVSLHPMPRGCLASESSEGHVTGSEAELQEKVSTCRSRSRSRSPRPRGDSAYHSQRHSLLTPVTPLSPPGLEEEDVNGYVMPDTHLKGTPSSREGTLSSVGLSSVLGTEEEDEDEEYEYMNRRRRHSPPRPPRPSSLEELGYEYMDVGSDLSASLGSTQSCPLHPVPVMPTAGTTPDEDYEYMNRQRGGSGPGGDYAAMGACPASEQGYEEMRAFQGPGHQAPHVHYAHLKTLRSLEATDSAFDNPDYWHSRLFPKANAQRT
Experiment: flow cytometry, rhesus ERBB3-transfected HEK-293
quantity-name: maximum MFI, fold over isotype control background

15G11 IgG1null (antibody, V domains shown, Human IgG1null (L234A, L235A, G237A) and human Ckappa) VH: QVQLVESGGGLVKPGGSLRLSCAASGFTFSDYGMSWIRQAPGKGLEWVSTISDSGSYTYYPDSVKGRFTISRDNAKNSLYLQMNSLRAEDTAVYYCARELGDYDGFDYWGQGTLVTVSS VL: DIQMTQSPSSLSASVGDRVTITCRASQEISSYLSWYQQKPGKAPKLLIYAASSLDSGVPSRFSGSGSGTDFTLTISSLQPEDFATYYCLQYDSTPYTFGGGTKVEIK: > 20 fold
h24C05 IgG1null (antibody, V domains shown, Human IgG1null (L234A, L235A, G237A) and human Ckappa; also called humanized 24C05) VH: QVQLVESGGGLVKPGGSLRLSCAASGFTFSDYAMSWIRQAPGKGLEWVSTISDGGTYTYYPDNVKGRFTISRDNAKNSLYLQMNSLRAEDTAVYYCAREWGDYDGFDYWGQGTLVTVSS VL: DIQMTQSPSSLSASVGDRVTITCRASQEISGYLSWFQQKPGKAPKSLIYAASTLDSGVPSRFSGSGSGTDFTLTISSLQPEDFATYYCLQYDSYPYTFGGGTKVEIK: > 20 fold

Continue with the binder presented below.
query: Supply measured maximum MFI, fold over isotype control background of 15D10 IgG1null (antibody, V domains shown, Human IgG1null (L234A, L235A, G237A) and human Ckappa) VH: QVQLVESGGGLVKPGGSLRLSCAASGFTFSDYGMSWIRQAPGKGLEWVSTISDGGSYTYYADNVKGRFTISRDNAKNSLYLQMNSLRAEDTAVYYCAREWGDYDGFDFWGQGTLVTVSS VL: DIQMTQSPSSLSASVGDRVTITCRASQSISSYLSWYQQKPGKAPKLLIYAASTLQSGVPSRFSGSGSGTDFTLTISSLQPEDFATYYCLQYDSTPLTFGGGTKVEIK in your reply.
result: > 20 fold
